systemName: Histone-lysine N-methyltransferase SETD7 (Homo sapiens, UniProt Q8WTS6)
Sequence (Q8WTS6 whole entry): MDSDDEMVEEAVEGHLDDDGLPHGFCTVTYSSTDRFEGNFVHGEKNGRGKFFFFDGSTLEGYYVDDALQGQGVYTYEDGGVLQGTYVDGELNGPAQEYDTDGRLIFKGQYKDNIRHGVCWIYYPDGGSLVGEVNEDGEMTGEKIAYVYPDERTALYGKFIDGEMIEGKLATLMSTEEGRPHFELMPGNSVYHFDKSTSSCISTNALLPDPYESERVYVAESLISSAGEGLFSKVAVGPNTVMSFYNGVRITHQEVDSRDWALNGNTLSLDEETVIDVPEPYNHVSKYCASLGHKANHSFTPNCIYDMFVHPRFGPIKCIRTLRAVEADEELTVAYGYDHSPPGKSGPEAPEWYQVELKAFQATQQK
// note: IC50 values for Histone-lysine N-methyltransferase SETD7 (Homo sapiens, UniProt Q8WTS6) were reported in different studies

compound="OC(CNCCc1c[nH]c2ccccc12)Cn1c2ccccc2c2ccccc21 (racemic)" systemname="Histone-lysine N-methyltransferase SETD7 (Homo sapiens, UniProt Q8WTS6)" quantitymeasured=IC50 resultvalue="> 150 µM"
compound=O=C1C=CC(=O)C(c2ccc(Br)cc2)=C1 systemname="Histone-lysine N-methyltransferase SETD7 (Homo sapiens, UniProt Q8WTS6)" quantitymeasured=IC50 resultvalue="> 200 µM"
compound=O=C([C@H](Cc1cccc(C(F)(F)F)c1)NS(=O)(=O)c1cc(F)c2c(c1)CCNC2)N1CCCC1 systemname="Histone-lysine N-methyltransferase SETD7 (Homo sapiens, UniProt Q8WTS6)" quantitymeasured=IC50 resultvalue="1 µM"
compound=O=C1C=CC(=O)C(c2cccc(C(F)(F)F)c2)=C1 systemname="Histone-lysine N-methyltransferase SETD7 (Homo sapiens, UniProt Q8WTS6)" quantitymeasured=IC50 resultvalue="> 200 µM"
compound=O=c1c(O)c(-c2ccccc2)oc2cc(O)cc(O)c12 systemname="Histone-lysine N-methyltransferase SETD7 (Homo sapiens, UniProt Q8WTS6)" quantitymeasured=IC50 resultvalue="> 200 µM"

Your task in this section: give IC50 for each listed record.
1. O=C1C=CC(=O)C(c2ccc(CN3CCOCC3)c(NS(=O)(=O)c3ccc([N+](=O)[O-])cc3)c2)=C1
2. Nc1ncnc2c1ncn2[C@H]1O[C@@H](C[C@H](N)CC[C@H](N)C(=O)O)[C@H](O)[C@@H]1O
3. COc1ccc(OC)c(-c2ccc(CN3CCCC3)c([N+](=O)[O-])c2)c1

> 200 µM
2.5 µM
> 200 µM

Query (compound): "CCCc1cc(C)[nH]c(=O)c1CNC(=O)c1cc(-c2ccc(N3CCN(C)CC3)nc2)cc2c1cnn2C(C)C" ; field requested: IC50
49 µM
